Origin of the recorded values: the NIST ThermoML archive (doi:10.1021/je900672g)

test: isobaric coefficient of expansion; conditions: 298.15 K; 30000 kPa; Liquid; DSC
So I've got a bunch of compounds here, and I need their isobaric coefficient of expansion values.

Batch lookup, isobaric coefficient of expansion per entry.
1. CCC[N+](=O)[O-]
2. CCC#N
3. N#Cc1ccccc1
4. CC[N+](=O)[O-]

Solution:
["0.000958 1/K", "0.00111 1/K", "0.000788 1/K", "0.00103 1/K"]

Batch request: isobaric coefficient of expansion per item, same order as input.
1. C[N+](=O)[O-]
2. O=[N+]([O-])c1ccccc1

Solution:
1. 0.00109 1/K
2. 0.000762 1/K

* * *

experiment: isobaric coefficient of expansion; details: 348.15 K; 50000 kPa; Liquid; DSC
Measured Parameter: isobaric coefficient of expansion

O=[N+]([O-])c1ccccc1 [nitrobenzene] ... 0.000711 1/K
CC[N+](=O)[O-] [nitroethane] ... 0.000966 1/K
CCC#N [propanenitrile] ... 0.00103 1/K
CCC[N+](=O)[O-] [1-nitropropane] ... 0.000894 1/K
C[N+](=O)[O-] [nitromethane] ... 0.00103 1/K

Consider now this further compound.
Exercise: Fill in the blank: the reported isobaric coefficient of expansion of N#Cc1ccccc1 [benzonitrile] is ____.
Solution: 0.000737 1/K

* * *

assay: isobaric coefficient of expansion; conditions: 338.15 K; 40000 kPa; Liquid; DSC
Measured Parameter: isobaric coefficient of expansion

Answered examples (2):
CC[N+](=O)[O-] [nitroethane] ... 0.00101 1/K
CCC#N [propanenitrile] ... 0.00107 1/K

Report isobaric coefficient of expansion for each item below.
1. C[N+](=O)[O-] [nitromethane]
2. CCC[N+](=O)[O-] [1-nitropropane]
3. O=[N+]([O-])c1ccccc1 [nitrobenzene]
4. N#Cc1ccccc1 [benzonitrile]

Solution:
["0.00107 1/K", "0.00093 1/K", "0.000736 1/K", "0.000762 1/K"]

* * *

experiment: isobaric coefficient of expansion; conditions: 318.15 K; 10000 kPa; Liquid; DSC
Measured Parameter: isobaric coefficient of expansion

CC[N+](=O)[O-] ... 0.00116 1/K
N#Cc1ccccc1 ... 0.00084 1/K
C[N+](=O)[O-] ... 0.00123 1/K
O=[N+]([O-])c1ccccc1 ... 0.00082 1/K
CCC#N ... 0.00129 1/K

The record that follows has no isobaric coefficient of expansion shown yet.
Exercise: For "CCC[N+](=O)[O-]" , what is its reported isobaric coefficient of expansion?
Solution: 0.00109 1/K

* * *

Give isobaric coefficient of expansion for every item shown.
test: isobaric coefficient of expansion; details: 308.15 K; 20000 kPa; Liquid; DSC

Example entries and their recorded answers appear below.
O=[N+]([O-])c1ccccc1 ... 0.000787 1/K
C[N+](=O)[O-] ... 0.00115 1/K
N#Cc1ccccc1 ... 0.000814 1/K

Batch: isobaric coefficient of expansion for all items listed.
1. CCC[N+](=O)[O-]
2. CC[N+](=O)[O-]
3. CCC#N

Solution:
1: 0.00101 1/K; 2: 0.00109 1/K; 3: 0.00118 1/K
